Entries and their EC50, neutralization of spike pseudotyped virus
# SYSTEM: SARS-COV-2 spike, Delta variant (B.1.617.2) (SARS-COV-2, UniProt P0DTC2 14-1273)
# ASSAY_DETAILS: cell-based or functional assay
MEASURED_PROPERTY: EC50, neutralization of spike pseudotyped virus (nM)

- BINDER: "KP2C6 Nb-huFc (Fc fusion) EVQLQASGGGFVQPGGSLRLSCAASGRTFTSFHMGWFRQAPGKEREFVSAISSGDDGTQYYADSVKGRFTISRDNSKNTVYLQMNSLRAEDTATYYCAAYTTTTVPQYWGQGTQVTVSS"
  REPORTED_MEASUREMENT: 18.3
- BINDER: "KP1C9 Nb-huFc (Fc fusion) EVQLQASGGGFVQPGGSLRLSCAASGRTFDAYSMGWFRQAPGKEREFVSAISSWSDDWTAYADSVKGRFTISRDNSKNTVYLQMNSLRAEDTATYYCALQNTKEDRLYWGQGTQVTVSS"
  REPORTED_MEASUREMENT: 1.22
- BINDER: "KP1B5 Nb-huFc (Fc fusion) EVQLQASGGGFVQPGGSLRLSCAASGFTFDWSAMGWFRQAPGKEREFVSAISSSTSESTTYADSVKGRFTISRDNSKNTVYLQMNSLRAEDTATYYCATYYGGKTVEQDFYWGQGTQVTVSS"
  REPORTED_MEASUREMENT: 324
- BINDER: "DP4F2 Nb-huFc (Fc fusion) EVQLQASGGGFVQPGGSLRLSCAASGTTYSERVMGWFRQAPGKEREFVSAISSGQSDQTYYYADSVKGRFTISRDNSKNTVYLQMNSLRAEDTATYYCAPFAGDANLPREWYWGQGTQVTVSSA"
  REPORTED_MEASUREMENT: 26.8
